System: Saccharomyces cerevisiae
Experiment: Induction of DNA damage in Saccharomyces cerevisiae FM588 expressing rad52 gene assessed as growth inhibition at 5 to 100 uM after 24 hrs
Assay type: functional
Activity calls are given as the source filed them. The calls are words filed in the database; no cut-off is given here.
Possible outcomes: active, inactive

1. CN(C)CCN1C(=O)c2cccc3cc(C#Cc4ccc(O)cc4)cc(c23)C1=O : inactive
2. CN(C)CCN1C(=O)c2cccc3cc(C#Cc4cccc(C(F)(F)F)c4)cc(c23)C1=O : active
3. COc1cccc(C#Cc2cc3c4c(cccc4c2)C(=O)N(CCN(C)C)C3=O)c1 : active
4. COc1ccc(C#Cc2cc3c4c(cccc4c2)C(=O)N(CCN(C)C)C3=O)cc1 : active
5. CN(C)CCN1C(=O)c2cccc3cc(C#Cc4ccccc4)cc(c23)C1=O : active
6. C#Cc1cc2c3c(cccc3c1)C(=O)N(CCN(C)C)C2=O : active
7. CN(C)CCN1C(=O)c2cccc3cc(C#Cc4cccc([N+](=O)[O-])c4)cc(c23)C1=O : active
8. CN(C)CCN1C(=O)c2cccc3cc(C#Cc4cccc(O)c4)cc(c23)C1=O : active
9. CN(C)CCN1C(=O)c2cccc3cc(C#Cc4ccsc4)cc(c23)C1=O : active
10. CN(C)CCN1C(=O)c2cccc3cc(C#Cc4ccoc4)cc(c23)C1=O : active

* * *

Test system: SK-BR-3
Test: Antiproliferative activity against human SK-BR-3 cells after 48 hrs by MTT assay
Assay type: functional, cell-based
Settings: SK-BR-3, 48 h
A collection of compounds and their measured IC50
readout_type: IC50 (µM)

1) CN(C)CCN1C(=O)c2cccc3cc(C#Cc4ccc(O)cc4)cc(c23)C1=O : 2.1
2) CN(C)CCN1C(=O)c2cccc3cc(C#Cc4cccc(C(F)(F)F)c4)cc(c23)C1=O : 0.1
3) CN(C)CCN1C(=O)c2cccc3cc(C#Cc4ccoc4)cc(c23)C1=O : 9.6
4) COc1ccc(C#Cc2cc3c4c(cccc4c2)C(=O)N(CCN(C)C)C3=O)cc1 : 2.1
5) CN(C)CCN1C(=O)c2cccc3cc(C#Cc4ccccc4)cc(c23)C1=O : 4.6
6) COc1cccc(C#Cc2cc3c4c(cccc4c2)C(=O)N(CCN(C)C)C3=O)c1 : 2

* * *

Test system: HL-60
Test: Antiproliferative activity against human HL60 cells after 48 hrs by MTT assay
Assay type: functional, cell-based
Conditions: HL-60, 48 h
pIC50: −log10 of the molar value.
A collection of molecules and their measured pIC50
readout_type: pIC50

1) CN(C)CCN1C(=O)c2cccc3cc(C#Cc4cccc(C(F)(F)F)c4)cc(c23)C1=O : 5.64
2) COc1cccc(C#Cc2cc3c4c(cccc4c2)C(=O)N(CCN(C)C)C3=O)c1 : 6.00
3) CN(C)CCN1C(=O)c2cccc3cc(C#Cc4ccc(O)cc4)cc(c23)C1=O : 5.24
4) CN(C)CCN1C(=O)c2cccc3cc(C#Cc4cccc([N+](=O)[O-])c4)cc(c23)C1=O : 4.87
5) C#Cc1cc2c3c(cccc3c1)C(=O)N(CCN(C)C)C2=O : 5.00
6) CN(C)CCN1C(=O)c2cccc3cc(C#Cc4ccoc4)cc(c23)C1=O : 5.46
7) COc1ccc(C#Cc2cc3c4c(cccc4c2)C(=O)N(CCN(C)C)C3=O)cc1 : 5.96
8) CN(C)CCN1C(=O)c2cccc3cc(C#Cc4ccccc4)cc(c23)C1=O : 5.34
9) CN(C)CCN1C(=O)c2cccc3cc(C#Cc4cccc(O)c4)cc(c23)C1=O : 4.99
10) CN(C)CCN1C(=O)c2cccc3cc(N)cc(c23)C1=O [AMONAFIDE] : 5.47
11) CN(C)CCN1C(=O)c2cccc3cc(C#Cc4ccsc4)cc(c23)C1=O : 5.27

* * *

Molecular target: DNA topoisomerase 2-alpha (Homo sapiens) (UniProt P11388)
Sequence (P11388 whole entry): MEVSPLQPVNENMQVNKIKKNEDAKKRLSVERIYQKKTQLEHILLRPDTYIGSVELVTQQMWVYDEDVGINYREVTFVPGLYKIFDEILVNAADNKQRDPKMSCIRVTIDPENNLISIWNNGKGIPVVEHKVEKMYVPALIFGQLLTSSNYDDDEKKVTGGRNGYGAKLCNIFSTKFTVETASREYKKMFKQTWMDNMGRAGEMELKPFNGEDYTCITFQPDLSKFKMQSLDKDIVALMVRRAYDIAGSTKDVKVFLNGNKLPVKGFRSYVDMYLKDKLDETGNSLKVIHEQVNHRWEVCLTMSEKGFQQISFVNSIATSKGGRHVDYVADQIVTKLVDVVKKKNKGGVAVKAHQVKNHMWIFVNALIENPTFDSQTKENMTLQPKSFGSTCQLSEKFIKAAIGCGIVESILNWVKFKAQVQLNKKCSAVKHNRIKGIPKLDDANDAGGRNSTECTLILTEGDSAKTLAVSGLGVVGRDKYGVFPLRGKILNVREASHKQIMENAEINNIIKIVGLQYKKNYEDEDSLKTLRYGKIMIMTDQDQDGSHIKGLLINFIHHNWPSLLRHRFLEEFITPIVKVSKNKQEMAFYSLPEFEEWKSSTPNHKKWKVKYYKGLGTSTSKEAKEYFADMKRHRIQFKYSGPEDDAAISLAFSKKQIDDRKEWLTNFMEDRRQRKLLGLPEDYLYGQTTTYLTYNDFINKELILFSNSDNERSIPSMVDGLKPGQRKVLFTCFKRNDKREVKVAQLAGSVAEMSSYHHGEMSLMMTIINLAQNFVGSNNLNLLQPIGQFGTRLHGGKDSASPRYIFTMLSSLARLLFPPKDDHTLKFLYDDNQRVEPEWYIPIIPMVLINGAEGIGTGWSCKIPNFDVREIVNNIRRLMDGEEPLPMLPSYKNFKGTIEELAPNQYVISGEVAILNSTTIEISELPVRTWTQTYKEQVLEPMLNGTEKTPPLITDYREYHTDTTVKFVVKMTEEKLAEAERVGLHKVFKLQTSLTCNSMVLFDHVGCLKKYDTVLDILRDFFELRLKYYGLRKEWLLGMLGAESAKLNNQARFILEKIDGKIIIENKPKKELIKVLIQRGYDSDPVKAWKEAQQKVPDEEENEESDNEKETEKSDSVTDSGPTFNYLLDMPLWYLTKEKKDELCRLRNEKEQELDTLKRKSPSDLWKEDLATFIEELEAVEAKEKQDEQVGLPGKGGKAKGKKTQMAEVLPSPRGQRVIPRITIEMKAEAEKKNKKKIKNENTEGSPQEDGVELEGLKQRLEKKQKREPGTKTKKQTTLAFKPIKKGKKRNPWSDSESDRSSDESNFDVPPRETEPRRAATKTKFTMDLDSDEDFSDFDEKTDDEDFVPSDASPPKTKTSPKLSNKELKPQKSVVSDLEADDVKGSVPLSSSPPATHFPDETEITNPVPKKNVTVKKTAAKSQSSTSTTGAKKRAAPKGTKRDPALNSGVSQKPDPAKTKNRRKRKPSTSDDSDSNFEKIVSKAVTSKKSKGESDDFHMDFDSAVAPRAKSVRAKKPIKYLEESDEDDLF
Experiment: Inhibition of human topoisomerase-2 alpha assessed as reduction in relaxation of supercoiled pRYG DNA at 100 uM after 30 min by agarose gel electrophoresis
Activity calls are given as the source filed them. The calls are words filed in the database; no cut-off is given here.
Possible outcomes: active, inactive

1. CN(C)CCN1C(=O)c2cccc3cc(C#Cc4ccccc4)cc(c23)C1=O : active
2. CN(C)CCN1C(=O)c2cccc3cc(C#Cc4cccc(C(F)(F)F)c4)cc(c23)C1=O : inactive
3. CN(C)CCN1C(=O)c2cccc3cc(C#Cc4ccsc4)cc(c23)C1=O : active
4. CN(C)CCN1C(=O)c2cccc3cc(C#Cc4ccoc4)cc(c23)C1=O : active

* * *

A collection of molecules and their measured pIC50
System: SK-BR-3
Assay: Antiproliferative activity against human SK-BR-3 cells after 48 hrs by MTT assay
Type: functional, cell-based
Conditions: SK-BR-3, 48 h
pIC50: −log10 of the molar value.
readout_type: pIC50

1. CN(C)CCN1C(=O)c2cccc3cc(C#Cc4ccsc4)cc(c23)C1=O : < 5.00
2. CN(C)CCN1C(=O)c2cccc3cc(C#Cc4cccc(O)c4)cc(c23)C1=O : < 4.52
3. C#Cc1cc2c3c(cccc3c1)C(=O)N(CCN(C)C)C2=O : < 5.00
4. CN(C)CCN1C(=O)c2cccc3cc(C#Cc4cccc([N+](=O)[O-])c4)cc(c23)C1=O : < 5.00
